- TARGET OR TEST SYSTEM: T1, human CLEC12A expressed on cells (human, UniProt Q5QGZ9 1-265)
- T1 construct: Transduced isogenic cells or endogenous expression on AML cells; also called RMA-hCLEC12A; Ba/F3-hCLEC12A
- T1 sequence: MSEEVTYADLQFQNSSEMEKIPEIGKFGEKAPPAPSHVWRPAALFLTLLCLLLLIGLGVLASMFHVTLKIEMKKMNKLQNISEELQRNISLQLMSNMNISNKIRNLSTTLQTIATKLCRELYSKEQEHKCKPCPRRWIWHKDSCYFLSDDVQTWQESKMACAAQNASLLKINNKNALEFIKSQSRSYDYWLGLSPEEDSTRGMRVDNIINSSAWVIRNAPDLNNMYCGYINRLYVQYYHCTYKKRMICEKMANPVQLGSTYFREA
- ASSAY EXPLANATION: flow cytometry, PL21 cells
MEASURED PARAMETER: pEC50
Please treat pEC50 as minus the base-10 logarithm of the molar concentration.

Genentech-h6E7 (antibody, V domains shown) VH: EVQLVQSGAEVKKPGASVKVSCKASGYSFTDYYMHWVRQAPGQGLEWIGRINPYNGAAFYSQNFKDRVTLTVDTSTSTAYLELSSLRSEDTAVYYCAIERGADLEGYAMDYWGQGTLVTVSS VL: DIQMTQSPSSLSASVGDRVTITCRASQSVSTSSYNYMHWYQQKPGKPPKLLIKYASNLESGVPSRFSGSGSGTDFTLTISSLQPEDFATYYCQHSWEIPLTFGQGTKVEIK    8.30
9F11.B7 (antibody, V domains shown, Murine mAb) VH: EVQLQESGGGLVQPGGSRKLSCAASGFTFNSFGMHWVRQAPEKGLEWVAFISSGSTSIYYANTVKGRFTISRDNPKNTLFLQMTSLRSEDTAMYYCARDGYPTGGAMDYWGQGTSVTVSS VL: DIKMTQSPSSMYASLGERVTITCKASQDIYNYLSWFQLKPGKSPRPLIYRANILVSGVPSKFSGSGSGQDYSLTINSLEYEDLGIYYCLQFDAFPFTFGSGTKLEIK    9.25
16B8.C8 (antibody, V domains shown, Murine mAb; also called 16B08; m16B8.C8) VH: EVQLQESGPGLVQPSQSLSITCTVSGFSLTNYGLHWVRQSPGKGLEWLGVIWSGGKTDYNTPFKSRLSISKDISKNQVFFKMNSLQPNDTAIYFCAKYDYDDSLDYWGQGTSVTVSS VL: DIQMNQSPSSLSASLGDTIAITCHASQNINFWLSWYQQKPGNIPKLLIYEASNLHTGVPSRFSGSGSGTRFTLTISSLQPEDIATYYCQQSHSYPLTFGQGTKLEIK    9.74

Could you now look at the following binder, please?
I would be grateful if you could share the reported pEC50 for 9E4.B7 (antibody, V domains shown, Murine mAb; also called 9E04) VH: EVQLQESGAELMKPGASVKISCRTTGYTFSTYWIEWVKQRPGRGPEWIGELFPGNSDTTLNEKFTGKATFTADSSSNTAYMQLSSLTSEDSAVYYCARSGYYGSSLDYWGQGTTLTVSS VL: GIVMTQSPASLSASVGETVTITCRAGENIHSYLAWYQQKQGKSPQLLVYNAKTLAEGVPSRFSGSGSGTQFSLKINSLQPEDFGSYYCQHHYGTPRTFGGGTKLEIK . 9.19

Where these numbers come from: patent US20220119534A1
